system: C. difficile ATCC 43255; test: Determination of minimal-inhibitory concentrations (microdilution), C. difficile ATCC 43255; type: cell-based, Clostridioides difficile; conditions: Clostridioides difficile, ATCC43255, 24 h, C. difficile ATCC 43255, 24 h; read-out: MIC (μg/mL) 24 h
Quantity Kind: MIC

Exam item: State recorded MIC with C. difficile ATCC 43255, entry Clc1nc(-c2ccc(OC3CCCC3)cc2)no1 , no comment.
Marked response: > 128 µg/mL

Exam item: Give MIC for this entry on C. difficile ATCC 43255: O=C(NNC(=O)c1ccc(OC2CCCC2)cc1)c1ccc(O)cc1
Marked response: > 128 µg/mL

Exam item: Provide MIC, tested on C. difficile ATCC 43255, for FC(F)(F)c1ccc(Oc2ccc(-c3noc(-c4ccc5[nH]ccc5c4)n3)cc2)cc1 .
Marked response: 2 µg/mL

Exam item: Under C. difficile ATCC 43255, report MIC for C#CCCOc1ccc(-c2noc(-c3ccc(O)cc3)n2)cc1
Marked response: > 128 µg/mL

Exam item: Provide the reported MIC (system: C. difficile ATCC 43255) for CCOc1ccc(-c2noc(-c3ccc(O)cc3)n2)cc1
Marked response: > 128 µg/mL

====

tested on: C. difficile ATCC 43255; assay: Determination of minimal-inhibitory concentrations (microdilution), C. difficile ATCC 43255; assay type: cell-based, Clostridioides difficile; settings: Clostridioides difficile, ATCC43255, C. difficile ATCC43255; read-out: ATCC43255 MIC
Quantity Kind: MIC (µg/mL)
Number in µg/mL, nothing else.

Exam item: Indicate the recorded MIC value for this compound: O=[N+]([O-])c1cnc(-c2nc(-c3ccc(OC4CCCC4)cc3)no2)[nH]1
Marked response: 0.25

Exam item: Tell us which MIC value is on record for NCc1ccc(-c2nc(-c3ccc(Oc4ccc(F)c(F)c4)cn3)no2)cc1
Marked response: 8

Exam item: Retrieve MIC measured for CC(C)Oc1ccc(-c2noc(-c3ccc(CN)cc3)n2)cc1C(F)(F)F and print it.
Marked response: 16

Exam item: Input NCc1ccc(-c2nc(-c3ccc(OC4CCCCC4)cc3)no2)cc1 , output reported MIC.
Marked response: 8

====

Provide the recorded MIC for the entries that follow.
test system: C. difficile ATCC 43255; test: Determination of minimal-inhibitory concentrations (microdilution), C. difficile ATCC 43255; format: cell-based, Clostridioides difficile; conditions: Clostridioides difficile, ATCC43255, 24 h, C. difficile ATCC 43255, 24 h; read-out: MIC (μg/mL) 24 h

Exam item: Assign MIC to the following record: c1nc2ccc(-c3nc(-c4ccc(OC5CCCC5)cc4)no3)cc2[nH]1
Marked response: 128 µg/mL

Exam item: Quick one: give measured MIC for Oc1cccc(/C=C/c2nc(-c3ccc(OC4CCCC4)cc3)no2)c1
Marked response: > 128 µg/mL

Exam item: State its MIC for this molecule: FC(F)(F)c1ccc(Oc2ccc(-c3noc(-c4ccncc4)n3)cc2)cc1
Marked response: > 128 µg/mL

Exam item: Answer with the recorded MIC for the molecule listed here: C#CCOc1ccc(-c2noc(-c3ccc(O)cc3)n2)cc1
Marked response: 16 µg/mL

Exam item: Query MIC for C[C@@H](N)c1nc(-c2ccc(OC3CCCC3)cc2)no1
Marked response: > 128 µg/mL

Exam item: Name the recorded MIC of the molecule listed here: COC(OC)c1ccc(-c2noc(-c3ccc(O)cc3)n2)cc1
Marked response: 64 µg/mL

Exam item: Quickly give me recorded MIC for CC(C)(C)OC(=O)N1CCC(Oc2ccc(-c3noc(-c4ncc([N+](=O)[O-])[nH]4)n3)cc2)CC1
Marked response: > 128 µg/mL

Exam item: Give the reported value of MIC for this record: CCCCOc1ccc(-c2noc(-c3ccc(O)cc3)n2)cc1
Marked response: > 128 µg/mL

Exam item: Recall and state the measured MIC for FC(F)(F)c1ccc(Oc2ccc(-c3noc(-c4cc5ccccc5[nH]4)n3)cc2)cc1 .
Marked response: > 128 µg/mL

Exam item: Provide one value: measured MIC of Fc1ccccc1-c1noc(-c2ccc3[nH]ccc3c2)n1
Marked response: > 128 µg/mL

Exam item: Using known records, supply MIC for Oc1ccc(-n2cc(-c3ccc(Oc4ccccc4)cc3)nn2)cc1
Marked response: > 128 µg/mL

Exam item: Please give the documented MIC of Oc1ccc(Cc2nc(-c3ccc(OC4CCCC4)cc3)no2)cc1
Marked response: 8 µg/mL

Exam item: Tell me its MIC given O=[N+]([O-])c1ccc(-c2noc(-c3ccc4[nH]ccc4c3)n2)cc1 as the entry.
Marked response: > 128 µg/mL

Exam item: Quickly give me recorded MIC for c1cc2cc(-c3nc(-c4ccc(OC5CCCC5)cc4)no3)ccc2[nH]1
Marked response: > 128 µg/mL

Exam item: Tell us which MIC value is on record for CN1CCC(Oc2ccc(-c3noc(-c4ncc([N+](=O)[O-])[nH]4)n3)cc2)C1.Cl (stereo not drawn)
Marked response: > 128 µg/mL

Exam item: Tell us which MIC value is on record for Oc1ccc(-c2nc(-c3ccc(OC4CCCC=C4Br)cc3)no2)cc1 (stereo not drawn)
Marked response: 2 µg/mL

Exam item: Given c1cc(-c2noc(-c3ccc4c(c3)CCN4)n2)ccc1OC1CCCC1 , respond with its MIC.
Marked response: 4 µg/mL

Exam item: Identify measured MIC corresponding to O=[N+]([O-])c1c[nH]nc1-c1nc(-c2ccc3oc4ccccc4c3c2)no1
Marked response: 4 µg/mL

====

tested on: C. difficile ATCC 43255; assay: Determination of minimal-inhibitory concentrations (microdilution), C. difficile ATCC 43255; format: cell-based, Clostridioides difficile; conditions: Clostridioides difficile, ATCC43255, 24 h, C. difficile ATCC 43255, 24 h; read-out: MIC (μg/mL) 24 h
Quantity Kind: log10 of MIC (log10 of the value in µg/mL)
Use the decimal logarithm of MIC (µg/mL).

Exam item: Send back C. difficile ATCC 43255 log10 of MIC of NCc1ccc(-c2nc(-c3ccc(OC4CCCC4)cc3)no2)cc1 only.
Marked response: 0.60

Exam item: Output reported log10 of MIC of the compound O=Cc1ccc(-c2noc(-c3ccc(O)cc3)n2)cc1 on C. difficile ATCC 43255.
Marked response: 1.81

Exam item: Given Nc1ccc(-c2nc(-c3ccc(OC4CCCC4)cc3)no2)cc1 , report its log10 of MIC on C. difficile ATCC 43255.
Marked response: 0.30

Exam item: Under C. difficile ATCC 43255, report log10 of MIC for Cl.NCCCCc1nc(-c2ccc(OC3CCCC3)cc2)no1
Marked response: 2.11

Exam item: # return log10 of MIC of Cl.NCc1ccc(-c2nc(-c3ccc(Oc4ccc(C(F)(F)F)cc4)cc3)no2)cc1 (system: C. difficile ATCC 43255)
Marked response: 0.60

Exam item: State the measured log10 of MIC (C. difficile ATCC 43255) of Oc1ccc(/C=C/c2nc(-c3ccc(OC4CCCC4)cc3)no2)cc1
Marked response: 1.51

Exam item: Return reported log10 of MIC for target or system C. difficile ATCC 43255, item O=[N+]([O-])c1c[nH]nc1-c1nc(-c2ccc(OC(F)(F)F)cc2)no1 .
Marked response: 0.30

Exam item: Give log10 of MIC for O=[N+]([O-])c1cnc(-c2nc(-c3ccc(OC4CCC4)cc3)no2)[nH]1 tested on C. difficile ATCC 43255.
Marked response: -0.30

Exam item: With C. difficile ATCC 43255 as the test system, provide measured log10 of MIC for this compound: CCCOc1ccc(-c2noc(-c3ccc(O)cc3)n2)cc1
Marked response: 0.60

====

test system: THP-1 cells; test: Lactate dehydrogenase (LDH) cytotoxicity assay; format: cell-based, human; details: Homo sapiens, THP-1, 24 h, read-out: LDH (IC50)
For each entry below, report its IC50 value.
Output spec: scalar in µg/mL, unitless text.

Exam item: Tell me measured IC50 for O=[N+]([O-])c1c[nH]nc1-c1nc(-c2ccc3oc4ccccc4c3c2)no1 please.
Marked response: 9.8

Exam item: Recall and state the measured IC50 for Oc1ccc(-c2nc(-c3ccc(OC4CCCC4)cc3)no2)cc1 .
Marked response: 18

Exam item: Given O=[N+]([O-])c1c[nH]nc1-c1nc(-c2ccc(OC(F)(F)F)cc2)no1 , respond with its IC50.
Marked response: 25

Exam item: Tell me its IC50 given Oc1ccc(-c2nc(-c3ccc(OC4CCCC=C4Br)cc3)no2)cc1 (stereo not drawn) as the entry.
Marked response: 8.4

====

Answer each item with its documented MIC.
system: C. difficile ATCC 43255; assay: Determination of minimal-inhibitory concentrations (microdilution), C. difficile ATCC 43255; type: cell-based, Clostridioides difficile; conditions: Clostridioides difficile, ATCC43255, C. difficile ATCC43255; read-out: ATCC43255 MIC
Write the number in µg/mL without appending the unit.

Exam item: Input NCCc1ccc(-c2nc(-c3ccc(Oc4ccc(F)cc4)cn3)no2)cc1 [YQ-4-170] , output reported MIC.
Marked response: 8

Exam item: Give recorded MIC. NCc1ccc(-c2nc(-c3ccc(OC4CCCC4)cc3)no2)cc1 [YQ-4-81]
Marked response: 4

Exam item: Quote MIC reported for NCc1ccc(-c2nc(-c3ccnc(Oc4ccc(C(F)(F)F)cc4)c3)no2)cc1 [YQ-4-104] please.
Marked response: 8

Exam item: Report measured MIC; entry is NCc1ccc(-c2nc(-c3ccnc(-c4ccc(C(F)(F)F)cc4)c3)no2)cc1 [YQ-4-163]
Marked response: 16

The origin of these recorded values is patent US20260125371A1.
